test system: Plasmodium berghei; assay: Screen against P. berghei liver stage (PbLuc), transformed with Luciferase, at 10uM; assay type: functional, HepG2; settings: tested at 10 uM
About 8,600 (12%) of roughly 69,000 compounds showed an effect of 50% or more. The sample holds strong results, similar compounds and a random draw of the others, so the mix is not that of the screen.
Threshold check on INHIBITION: at or above 20% gives criterion met, strictly below gives criterion not met.

INSERT INTO results (compound, category) VALUES
  ('CS(=O)(=O)CCN(CCCO)C1CCc2ccccc21 (centres undefined)', 'criterion not met'),
  ('CC1(C)CN=C(N2CCN(CC3CCCO3)CC2)S1 (centres undefined)', 'criterion met'),
  ('CCn1c(SCC(N)=O)nnc1-c1csc2c1CCCC2', 'criterion met'),
  ('Cc1cccc(C(=O)N2CCCn3c(CN4CCCCC4)nnc3C2)c1', 'criterion met'),
  ('CC(C)(C)C(=O)NCC(=O)NCCc1nc(C(F)(F)F)cs1', 'criterion not met'),
  ('COc1c(C2CCCN2C(=O)c2c(C)noc2C)c(C)nn1C (centres undefined)', 'criterion not met'),
  ('CS(=O)(=O)NCCN(CCCO)C1CCc2ccccc21 (centres undefined)', 'criterion met'),
  ('CN1[C@@H](c2ccccc2)[C@@H](C(=O)NCc2ccccn2)C[C@@]1(C)C(=O)O', 'criterion met'),
  ('CC1(C)CN=C(N2CCN(CC3CCOC3)CC2)S1 (centres undefined)', 'criterion met'),
  ('O=C(N[C@@H]1CN(Cc2cccc3[nH]ccc23)C[C@H]1O)c1cscn1', 'criterion not met'),
  ('O=C(NC1CCN(c2ccc(-c3ccccc3F)nn2)C1)c1ccc[nH]1 (centres undefined)', 'criterion not met'),
  ('O=C(c1ccncc1)N1CCCn2c(CN3CCCCC3)nnc2C1', 'criterion met'),
  ('CC(C)c1nc(CNCC2CCCN2c2cccnn2)cs1 (centres undefined)', 'criterion not met'),
  ('CS(=O)(=O)CCCN(CCCO)C1CCc2ccccc21 (centres undefined)', 'criterion met'),
  ('O=C(c1ccccc1)N1CCCn2c(CN3CCCCC3)nnc2C1', 'criterion met'),
  ('O=C(Cc1cn2ccsc2n1)N1CCCC(n2cccn2)C1 (centres undefined)', 'criterion not met'),
  ('CC(C)c1nnc2n1CCN(C(=O)c1ccnc(-n3ccnc3)c1)C2', 'criterion met'),
  ('O=C1CCCN1Cc1nnc2n1CCCN(C(=O)c1ccc[nH]1)C2', 'criterion met'),
  ('O=C(NC1CCN(c2ccc(-c3ccccc3F)nn2)C1)C1CCC1 (centres undefined)', 'criterion met'),
  ('COc1ccc(CNCc2c(C(C)C)nn(C)c2OC)cn1', 'criterion met'),
  ('CC(C)NC(=O)c1nnn(-c2ccc(F)cc2)c1C1CC1', 'criterion not met'),
  ('CC1(C)CN=C(N2CCN(CCCN3CCOCC3)CC2)S1', 'criterion met'),
  ('O=C(c1cccc(Cl)c1)N1CCCn2c(CN3CCCCC3)nnc2C1', 'criterion met');

----------
Recorded INHIBITION, one value per entry.
tested on: Plasmodium berghei; experiment: Screen against P. berghei liver stage (PbLuc), transformed with Luciferase, at 10uM; type: functional, HepG2; details: tested at 10 uM
Out of some 69,000 compounds screened, about 8,600 (12%) showed an effect of 50% or more. The full list was thinned out, with strong results kept by preference.
measured_quantity: INHIBITION (%)

INSERT INTO measurements (compound, experimental_value) VALUES
  ('CC(=O)Nc1ccc(CNCC(O)c2ccc(Cl)cc2)cc1 (stereo unspecified)', 45.7),
  ('CC(=O)N1[C@H](CN(C)C)C[C@@H]2CN(c3ncc(F)cn3)CC[C@@H]21', -0.804),
  ('FC(F)(F)C1CCc2nnc(CNCc3ccsc3)n2C1 (stereo unspecified)', 37),
  ('CC(C)C(C)N(C)C(=O)COc1ccccc1C#N (stereo unspecified)', 16.8),
  ('FC(F)(F)C1CCc2nnc(CNCc3cccs3)n2C1 (stereo unspecified)', 26),
  ('COc1ccc(CNCc2nnc3n2CC(C(F)(F)F)CC3)cc1 (stereo unspecified)', 27.5);

Where do these numbers come from? They come from ChEMBL document CHEMBL4513216.
